system: F1*sub RNA substrate (template-directed ligation); assay: fraction ligated after 30 min (ligated reads / total reads); higher = more ligase activity; sequences stand for … in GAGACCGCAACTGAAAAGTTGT…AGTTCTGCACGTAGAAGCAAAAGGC; conditions: 42 °C
# reported fraction ligated; entries follow
Quick one: just the number, no unit, thanks!

Here are 6 sequences together with their reported answers.
INSERT INTO assay_data (seq, study_target, measurement_name, result) VALUES
  ('ATCACTTGTCGTAAACACTTGGATGGGTTGA [3d214]', 'F1*sub RNA substrate (template-directed ligation)', 'fraction ligated', 0.742),
  ('ATACTTGTCGTAAGACACTTGGATGGGTTGA [3d60]', 'F1*sub RNA substrate (template-directed ligation)', 'fraction ligated', 0.473),
  ('TATCACTTGTCGTAAGACACTGGTGGGTTGA [3d2233]', 'F1*sub RNA substrate (template-directed ligation)', 'fraction ligated', 0.00438),
  ('TATCACTTGTCGTAGAACTTTGGATGGGTTGA [2d224]', 'F1*sub RNA substrate (template-directed ligation)', 'fraction ligated', 0.864),
  ('TTCACTTGTCGAAGACACTTTGGATGGGTTA [3d427]', 'F1*sub RNA substrate (template-directed ligation)', 'fraction ligated', 0.28),
  ('TTCACTTGTCGTAGACACTTGGATGGGTTGA [3d435]', 'F1*sub RNA substrate (template-directed ligation)', 'fraction ligated', 0.489);

Kindly review the next sequence as well.
Request: Assign fraction ligated to the following record: TATCCTTGTCGAAGACACTTTGATGGGTTGA [3d1036]
Result: 0.781

---

test system: F1*sub RNA substrate (template-directed ligation); test: fraction ligated after 30 min (ligated reads / total reads); higher = more ligase activity; sequences stand for … in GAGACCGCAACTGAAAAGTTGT…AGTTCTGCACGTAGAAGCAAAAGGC; conditions: 42 °C
Measurement name: fraction ligated
Quick one: just the number, no unit, thanks!

INSERT INTO measurements (seq, result) VALUES
  ('TATCATTTCGTAAGAACTTTGGATGGGTTGA [3d1146]', 0.857),
  ('TATCATTGTCTAAGACACTTGGATGGGTTGA [3d1194]', 0.78),
  ('TATCACTTGTCGTAAGACACTTTATGGTTGA [3d2257]', 0.0255),
  ('TTCACTTGTCGAAGACACTTTGATGGGTTGA [3d423]', 0.17),
  ('TATCCTGTCGTAAGACACTTTGGATGGGTTA [3d966]', 0.436);

Request: Assign fraction ligated to the following record: TATCACTTGCGTAAGACACTTTGGTGGTTGA [3d1695]
Result: 0.0605

Request: Assign fraction ligated to the following record: TATCACTTGTCTAAGACACTTGGAGGGTTGA [3d1881]
Result: 0.0594

Request: Assign fraction ligated to the following record: TTCCTTGTCGTAAGACATTTGGATGGGTTGA [3d309]
Result: 0.756

---

test system: F1*sub RNA substrate (template-directed ligation); assay: fraction ligated after 30 min (ligated reads / total reads); higher = more ligase activity; sequences stand for … in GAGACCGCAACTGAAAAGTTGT…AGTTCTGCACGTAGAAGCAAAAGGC; details: 42 °C
Measurement name: fraction ligated

Here are 3 sequences together with their reported answers.
INSERT INTO results (seq, result) VALUES
  ('TTCATTGTCGTAAGACACTTTGGATGGGTTGA [2d27]', 0.509),
  ('TATCACTTGCGTAAGCACTTTGGATGGTTGA [3d1656]', 0.705),
  ('TATCACTTGCGTAAGACATTTGATGGGTTGA [3d1675]', 0.574);

Request: Assign fraction ligated to the following record: TATCACTTGTCGTAGAATTTGGATGGGTTGA [3d2013]
Result: 0.832

Request: Assign fraction ligated to the following record: TATCACTTGTCGTAGCATTTGGATGGGTTGA [3d2005]
Result: 0.815

Request: Assign fraction ligated to the following record: TATCACTTGGTAAGACACTTTGGATGGGTTGA [2d163]
Result: 0.813

Request: Assign fraction ligated to the following record: TATCACTTGTGTAGACACTTTGGATGGGTTA [3d1742]
Result: 0.828

Request: Assign fraction ligated to the following record: TACACTTGTCGTAAGACACTTGGATGGGTTA [3d719]
Result: 0.0331
